# study-system: [V390I/Y410E/E274V]-CfEcR (Choristoneura fumiferana)
# Construct: assay construct b835
# Assay type: cell-based
# experimental-setup: rac, 3T3 Cells, relative to GS-E ligand
parameter: RMFI (relative maximum fold induction)
Format: numeric value only, no unit, no commentary.

Reference set (3 entries):
[
  {
    "molecule": "CCCC(N(NC(=O)c1cccc(OC)c1C)C(=O)c1cc(C)cc(C)c1)C(C)(C)C (racemic) [rac-29]",
    "parameter": "RMFI (relative maximum fold induction)",
    "observed": 0.77
  },
  {
    "molecule": "CCCC(N(NC(=O)c1ccc(OC)c(OC)c1)C(=O)c1cc(C)cc(C)c1)C(C)(C)C (racemic) [rac-17]",
    "parameter": "RMFI (relative maximum fold induction)",
    "observed": 0.51
  },
  {
    "molecule": "CCCC(N(NC(=O)c1cccc2ccccc12)C(=O)c1cc(C)cc(C)c1)C(C)(C)C (racemic) [rac-23]",
    "parameter": "RMFI (relative maximum fold induction)",
    "observed": 0.84
  }
]

# lookup: RMFI (relative maximum fold induction) of CCCC(N(NC(=O)c1c(Cl)cccc1Cl)C(=O)c1cc(C)cc(C)c1)C(C)(C)C (racemic) [rac-16] 0.73

Give its RMFI (relative maximum fold induction) value. Item: CCCC(N(NC(=O)c1ccc2c(c1CC)OCCO2)C(=O)c1cc(C)cc(C)c1)C(C)(C)C (racemic) [rac-22] 0.79
